Tested on: Blood
protocol-text: Antiinflammatory activity in human whole blood assessed as inhibition of LPS-induced TNFalpha production after 6 hrs by immunoassay
Type: functional, tissue-based
pIC50: −log10 of the molar value.
Rule: label 1 for pIC50 not less than 7, label 0 for anything less.

>>> category("Fc1ccc(-c2[nH]cc(C3=CC4CCCN4CC3)c2-c2ccncc2)cc1 (stereo not given)")
"label 1"
>>> category("Fc1ccc(-c2[nH]cc(C3=CCN4CCCC4C3)c2-c2ccncc2)cc1 (stereo not given)")
"label 0"
>>> category("Fc1ccc(-c2[nH]cc(C3=C[C@@H]4CCCN4CC3)c2-c2ccncc2)cc1")
"label 1"
>>> category("Fc1ccc(-c2[nH]cc(C3=CCN4CCCCC4C3)c2-c2ccncc2)cc1 (stereo not given)")
"label 0"
>>> category("Fc1ccc(-c2[nH]cc(C3=CC4CCCCN4CC3)c2-c2ccncc2)cc1 (stereo not given)")
"label 0"

###

assay-system: Mitogen-activated protein kinase 11 (Homo sapiens)
Sequence (Q15759 whole entry): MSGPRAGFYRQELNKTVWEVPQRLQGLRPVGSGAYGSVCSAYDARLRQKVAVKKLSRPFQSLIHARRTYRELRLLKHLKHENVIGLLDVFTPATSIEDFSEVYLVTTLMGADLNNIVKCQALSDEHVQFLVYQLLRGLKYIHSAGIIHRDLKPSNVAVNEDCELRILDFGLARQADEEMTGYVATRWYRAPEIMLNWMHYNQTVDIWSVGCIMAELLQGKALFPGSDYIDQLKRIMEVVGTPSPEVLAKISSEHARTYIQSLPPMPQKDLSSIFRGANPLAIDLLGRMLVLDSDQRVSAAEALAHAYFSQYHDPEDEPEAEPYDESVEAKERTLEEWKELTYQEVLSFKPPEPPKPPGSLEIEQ
protocol-text: Inhibition of p38beta
pIC50: −log10 of the molar value.
assay-metric: pIC50

>>> value("Fc1ccc(-c2[nH]cc(C3=C[C@@H]4CCCN4CC3)c2-c2ccncc2)cc1")
6.24

###

assay-system: Mitogen-activated protein kinase 13 (Homo sapiens, UniProt O15264)
Sequence (O15264 whole entry): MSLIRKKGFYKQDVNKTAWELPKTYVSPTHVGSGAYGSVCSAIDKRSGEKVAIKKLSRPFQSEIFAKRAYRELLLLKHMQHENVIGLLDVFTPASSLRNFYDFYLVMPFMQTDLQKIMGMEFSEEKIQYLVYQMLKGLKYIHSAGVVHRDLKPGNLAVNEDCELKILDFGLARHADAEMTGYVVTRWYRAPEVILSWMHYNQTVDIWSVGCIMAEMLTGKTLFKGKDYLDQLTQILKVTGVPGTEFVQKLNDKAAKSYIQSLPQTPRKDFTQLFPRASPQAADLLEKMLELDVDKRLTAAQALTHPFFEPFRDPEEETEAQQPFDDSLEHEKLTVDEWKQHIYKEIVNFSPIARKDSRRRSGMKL
protocol-text: Inhibition of p38delta
assay-metric: IC50

>>> value("Fc1ccc(-c2[nH]cc(C3=C[C@@H]4CCCN4CC3)c2-c2ccncc2)cc1")
"> 10 µM"
